This listing pairs compounds with measured EC50.
# tgt: P2Y1 (Homo sapiens, UniProt P47900)
# Construct: expressed in transfected cells; host or cells: human astrocytoma 1321N1 cells
# Sequence (P47900 whole entry, species assumed): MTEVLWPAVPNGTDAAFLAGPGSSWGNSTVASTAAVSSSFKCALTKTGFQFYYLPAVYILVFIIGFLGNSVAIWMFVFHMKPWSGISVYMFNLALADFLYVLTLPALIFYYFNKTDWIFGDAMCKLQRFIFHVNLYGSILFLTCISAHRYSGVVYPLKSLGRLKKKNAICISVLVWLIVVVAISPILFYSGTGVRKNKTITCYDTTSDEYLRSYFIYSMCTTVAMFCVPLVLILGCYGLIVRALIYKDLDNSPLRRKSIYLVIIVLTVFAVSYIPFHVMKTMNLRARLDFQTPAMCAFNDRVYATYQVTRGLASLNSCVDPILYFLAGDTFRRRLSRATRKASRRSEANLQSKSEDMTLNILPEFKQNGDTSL
# assay protocol: Intracellular calcium mobilization (FLIPR, Fluo-3 AM) in 1321N1 cells expressing P2Y1
# Assay type: cell-based
# condition details: 1321N1 cells expressing P2Y1, intracellular calcium
# Experimental: Human astrocytoma (1321N1) cells expressing P2Y1, P2Y2, P2Y4, and P2Y6 were grown to confluency in 96-well plates. Cells were loaded with a solution of Fluo-3 AM (2.5 μM final concentration) in an assay buffer consisting of 10 mM KCl, 118 mM NaCl, 2.5 mM CaCl2, 1 mM MgCl2, 20 mM HEPES, 10 mM glucose, pH 7.4. […] Intracellular calcium levels were monitored in each well simultaneously by measuring the changes in fluorescence intensity using the FLIPR (Molecular Devices Corp., Sunnyvale, Calif.). […]

{"compound": "O=c1ccn([C@@H]2O[C@H](COP(=O)(O)OP(=O)(O)OP(=O)(O)OC[C@@H]3O[C@H](n4ccc(=O)[nH]c4=O)C4OC(Cc5ccccc5)OC43)C(O)C2O)c(=O)[nH]1 (stereo partly drawn)", "EC50": "> 100 µM"}
{"compound": "O=c1ccn([C@@H]2O[C@H](COP(=O)(O)OP(=O)(O)O)[C@@H](O)[C@H]2O)c(=O)[nH]1 [UDP, uridine 5′-diphosphate]", "EC50": "> 100 µM"}
{"compound": "O=c1ccn([C@@H]2O[C@H](COP(=O)(O)OP(=O)(O)OP(=O)(O)OC[C@H]3O[C@@H](n4ccc(=O)[nH]c4=O)[C@H](O)[C@@H]3O)[C@@H](O)[C@H]2O)c(=O)[nH]1 [UP3U, P^1, P^3-(diuridine 5′-)triphosphate]", "EC50": "> 100 µM"}
